These measurements were taken from patent US20110144156A1.

- systemTested: human A3ARs (Homo sapiens)
- Construct: expressed in transfected cells; host or cells: CHO (Chinese hamster ovary) cells; membrane preparation
- experimentalProtocol: Dissociation kinetics of [125I]I-AB-MECA from human A3ARs (allosteric effect)
- statedConditions: 10 μM test compound; binding after 1.5 or 2 hours of dissociation, control without modulator set at 100%; brackets = result of each of two assays; read-out: hA3ARAg Dissociation at 10 μM
- Description: CHO (Chinese hamster ovary) cells expressing the recombinant human A3 receptors were cultured in DMEM and F12 (1:1) supplemented with 10% fetal bovine serum, 100 units/ml penicillin, 100 μg/ml streptomycin and 2 μmol/ml glutamine. […] The protein concentration was measured using the Bradford assay. The dissociation of [^125I]I-AB-MECA was measured as follows. […] The time course of dissociation of total binding was measured by rapid filtration at appropriate time intervals. […]
readoutName: activity at 10 µM (%)

- compound: "O=C(Nc1cc(Nc2ccccc2)nc2ccccc12)C1CCC1 [Compound 33]"
  activity at 10 µM [%]: 119
- compound: "O=C(Nc1cc(Nc2ccccc2)nc2ccccc12)c1ccccc1 [Compound 29, N-(2-anilinoquinolin-4-yl)benzamide]"
  activity at 10 µM [%]: 100
- compound: "O=C(Nc1cc(Nc2ccc(Cl)c(Cl)c2)nc2ccccc12)C1CCCC1 [Compound 17]"
  activity at 10 µM [%]: 169
- compound: "O=C(Nc1cc(Nc2ccc(Cl)c(Cl)c2)nc2ccccc12)c1ccccc1 [Compound 30]"
  activity at 10 µM [%]: 112

[a] O=C(Nc1cc(Nc2ccc3c(c2)CCC3)nc2ccccc12)C1CCCC1 [Compound 20]
[b] O=C(Nc1cc(Nc2ccccc2)nc2ccccc12)c1ccco1 [Compound 31, N-(2-anilinoquinolin-4-yl)-2-furamide]
[c] Cc1ccc(Nc2cc(NC(=O)C3CCCCC3)c3ccccc3n2)cc1 [Compound 27]
Exercise: rank_up(items): orders items by reported activity at 10 µM in ascending numerical order. # the answer lists labels in the order requested
Solution: b, a, c

* * *

- systemTested: human A3ARs (Homo sapiens, UniProt P0DMS8)
- Construct: expressed in transfected cells; host or cells: CHO (Chinese hamster ovary) cells; membrane preparation
- Sequence (P0DMS8 whole entry): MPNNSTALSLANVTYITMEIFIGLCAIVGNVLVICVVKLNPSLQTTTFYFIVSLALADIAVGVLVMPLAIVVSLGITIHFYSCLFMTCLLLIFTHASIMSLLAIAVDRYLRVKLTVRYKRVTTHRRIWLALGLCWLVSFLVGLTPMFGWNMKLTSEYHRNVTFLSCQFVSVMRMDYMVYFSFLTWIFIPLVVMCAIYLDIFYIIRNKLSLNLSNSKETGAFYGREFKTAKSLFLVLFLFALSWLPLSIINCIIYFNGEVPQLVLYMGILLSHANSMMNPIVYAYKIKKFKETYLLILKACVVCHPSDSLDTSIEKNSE
- experimentalProtocol: Dissociation kinetics of [125I]I-AB-MECA from human A3ARs (allosteric effect)
- statedConditions: 10 μM test compound; binding after 1.5 or 2 hours of dissociation, control without modulator set at 100%; brackets = result of each of two assays; read-out: hA3ARAg Dissociation at 10 μM
readoutName: activity at 10 µM (%)

Here are 3 molecules together with their reported answers.
- smilesNotation: "O=C(Nc1cc(NCc2ccccc2)nc2ccccc12)C1CCCC1"
  unitAbbreviation: "%"
  recordedMeasurement: 107
- smilesNotation: "O=C(Nc1cc(Nc2ccc(Cl)c(Cl)c2)nc2ccccc12)C1CCC1"
  unitAbbreviation: "%"
  recordedMeasurement: 149
- smilesNotation: "O=C(Nc1cc(Nc2ccc3cn[nH]c3c2)nc2ccccc12)C1CCCC1"
  unitAbbreviation: "%"
  recordedMeasurement: 102

[1] O=C(Nc1cc(NC2CCCC2)nc2ccccc12)C1CCCC1
[2] Cc1ccc(Nc2cc(NC(=O)C3CCCC3)c3ccccc3n2)cc1
Exercise: // compare measured activity at 10 µM between 1 and 2 ; output the lower one Bench note: the answer is the label of the chosen record.
Solution: 1
(1: 114%, 2: 165%)

[P] O=C(Nc1cc(Nc2ccc(Cl)c(Cl)c2)nc2ccccc12)c1ccco1
[Q] O=C(Nc1cc(Nc2ccccc2)nc2ccccc12)C1CCCC1
Exercise: // compare measured activity at 10 µM between P and Q ; output the lower one Bench note: the answer is the label of the chosen record.
Solution: P
